I'd be grateful if you could share measured IC50 for these entries.
Tested on: GM-CSF induced STAT5 phosphorylation mediated by the JAK2/JAK2 homdimeric complex
test protocol: GM-CSF Induced pSTAT5 in Human PBMC
condition notes: Homo sapiens, PBMC, 20 min, read-out: PBMC_GMCSF_pSTAT5 IC50, human PBMC; GM-CSF 5 ng/mL for 20 minutes; pSTAT5

Before answering, review these 10 worked examples.
{"molecule": "CNc1cc(Nc2cccn([C@@H]3CCN(CCF)C3)c2=O)nc2c(C(=O)NC3CCC3OC)cnn12 (stereo partly drawn)", "value measured": "> 50 µM"}
{"molecule": "CNc1cc(Nc2cccn([C@H]3CCCC[C@H]3O)c2=O)nc2c(C(=O)N[C@@H]3CC[C@H]3OC)cnn12", "value measured": "> 50 µM"}
{"molecule": "CNc1cc(Nc2cccn(-c3ccn(C)n3)c2=O)nc2c(C(=O)NC3CC3)cnn12", "value measured": "> 12.5 µM"}
{"molecule": "CNc1cc(Nc2cc(Cl)cn(C3CCCOC3)c2=O)nc2c(C(=O)NC3CC3)cnn12 (stereo not drawn)", "value measured": "> 50 µM"}
{"molecule": "CNC(=O)c1occc1Nc1cc(NC)n2ncc(C(=O)NC3CC3)c2n1", "value measured": "> 50 µM"}
{"molecule": "CNc1cc(Nc2cc(C)cc(F)c2)nc2c(C(=O)NC3CC3)cnn12", "value measured": "> 50 µM"}
{"molecule": "CNc1cc(Nc2cccnc2OC)nc2c(C(=O)N[C@@H]3CC[C@H]3O)cnn12", "value measured": "> 50 µM"}
{"molecule": "[2H]C([2H])([2H])Oc1ncccc1Nc1cc(NC)n2ncc(C(=O)N[C@@H]3CC[C@H]3O)c2n1", "value measured": "> 12.5 µM"}
{"molecule": "CNc1cc(-c2c[nH]c3c(C4CCOCC4)cc(Cl)cc23)nc2c(C(N)=O)cnn12", "value measured": "> 12.5 µM"}
{"molecule": "CNc1cc(Nc2cccn([C@H]3CCC[C@H](OC)C3)c2=O)nc2c(C(=O)NCC3(CO)CC3)cnn12", "value measured": "> 50 µM"}

List IC50 for every entry below, keeping the order given.
1. CNc1cc(Nc2cccn([C@@H]3CCC[C@@H](OC)C3)c2=O)nc2c(C(=O)NC3CC3)cnn12
2. CNc1cc(Nc2cccn(-c3ccc(F)cn3)c2=O)nc2c(C(=O)NC3CCC3)cnn12
3. CNc1cc(Nc2cccn(-c3nc(C)co3)c2=O)nc2c(C(=O)NC3CC3)cnn12
4. CNc1cc(Nc2cccnc2OC)nc2c(C(=O)NCC(C)(C)CO)cnn12
5. CNc1cc(Nc2cccn([C@H]3CC[C@](C)(OC)CC3)c2=O)nc2c(C(=O)N[C@H]3C[C@H]3F)cnn12
6. CNc1cc(Nc2cccn([C@H]3CC[C@H](OC)CC3)c2=O)nc2c(C(=O)N[C@H]3CC[C@@H]3O)cnn12
7. CNc1cc(Nc2cccn(C3CCCN(CCF)C3)c2=O)nc2c(C(=O)N[C@@H]3C[C@@H]3F)cnn12 (stereo partly drawn)
8. CNc1cc(Nc2cc(C)cnc2OC2CC2)nc2c(C(=O)NC3CC3)cnn12

Output:
1: > 50 µM; 2: > 50 µM; 3: > 12.5 µM; 4: > 2.5 µM; 5: > 50 µM; 6: > 12.5 µM; 7: > 50 µM; 8: > 50 µM

List IC50 for every entry below, keeping the order given.
1. CNc1cc(Nc2cc(F)cnc2OC2CC2)nc2c(C(=O)NC3CCC3)cnn12
2. CNc1cc(Nc2cccc(-c3nccs3)c2Cl)nc2c(C(N)=O)cnn12

Output:
["> 50 µM", "> 2.5 µM"]

List IC50 for every entry below, keeping the order given.
1. CNc1cc(Nc2cccn(-c3cnc(C(=O)N(C)C)cn3)c2=O)nc2c(C(=O)N[C@H]3C[C@H]3F)cnn12
2. CNc1cc(Nc2cc(C)cc(C)c2)nc2c(C(N)=O)cnn12

Output:
["> 50 µM", "> 50 µM"]

List IC50 for every entry below, keeping the order given.
1. CNc1cc(Nc2cccc(N3CCCC3=O)n2)nc2c(C(=O)NC3CCC3)cnn12
2. CNc1cc(Nc2cccn(-c3ccc(C4CC4)nn3)c2=O)nc2c(C(=O)N[C@H]3C[C@H]3F)cnn12

Output:
["> 50 µM", "> 2.5 µM"]

List IC50 for every entry below, keeping the order given.
1. [2H]C([2H])([2H])Oc1ncccc1Nc1cc(NC)n2ncc(C(=O)NC3CCC3)c2n1
2. CNc1cc(Nc2cc(Cl)cn(-c3cnc(C(=O)N(C)C)cn3)c2=O)nc2c(C(=O)N[C@H]3C[C@H]3F)cnn12
3. CNc1cc(Nc2cccn([C@H]3CCC[C@H](O)C3)c2=O)nc2c(C(=O)N[C@H]3CC[C@@H]3OC)cnn12
4. CNc1cc(Nc2cccn(-c3cnco3)c2=O)nc2c(C(=O)N[C@@H]3C[C@@H]3F)cnn12
5. CNc1cc(Nc2cccn(-c3ccc(OC)cn3)c2=O)nc2c(C(=O)N[C@H]3C[C@H]3F)cnn12
6. CNc1cc(Nc2cccn(-c3ncco3)c2=O)nc2c(C(=O)N[C@H]3C[C@H]3F)cnn12
7. CNc1cc(Nc2cc(F)cn(-c3ccccn3)c2=O)nc2c(C(=O)NC3CCC3)cnn12
8. CNc1cc(Nc2cccn3cnnc23)nc2c(C(=O)N[C@H]3CC[C@@H]3OC)cnn12

Output:
["> 50 µM", "> 2.5 µM", "> 50 µM", "> 2.5 µM", "> 12.5 µM", "> 2.5 µM", "> 12.5 µM", "> 2.5 µM"]

Task: # input molecule: `CNc1cc(Nc2cccn(-c3cc(C)n(C)n3)c2=O)nc2c(C(=O)N[C@H]3C[C@H]3F)cnn12` ; wanted: its IC50
Output: > 50 µM
